Would you mind telling me the reported Amylin receptor human EC50 of each entry?
Biological target: T1, human amylin 3(a) receptor (human calcitonin receptor + RAMP-3) (human, UniProt P30988 25-474; O60896 24-148)
T1 sequence (looked up) 1: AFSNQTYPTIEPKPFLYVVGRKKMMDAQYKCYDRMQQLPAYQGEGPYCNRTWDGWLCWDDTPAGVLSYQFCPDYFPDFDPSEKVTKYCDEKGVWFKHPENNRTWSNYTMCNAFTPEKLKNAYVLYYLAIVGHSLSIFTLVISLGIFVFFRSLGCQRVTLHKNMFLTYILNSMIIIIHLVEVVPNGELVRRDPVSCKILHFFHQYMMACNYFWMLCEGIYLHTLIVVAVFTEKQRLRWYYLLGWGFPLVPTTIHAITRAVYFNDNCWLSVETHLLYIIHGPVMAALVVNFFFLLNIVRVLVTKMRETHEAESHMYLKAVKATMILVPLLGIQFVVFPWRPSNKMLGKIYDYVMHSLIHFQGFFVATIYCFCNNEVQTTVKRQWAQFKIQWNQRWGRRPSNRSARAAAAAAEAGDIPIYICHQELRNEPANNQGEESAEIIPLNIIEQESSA
T1 sequence (looked up) 2: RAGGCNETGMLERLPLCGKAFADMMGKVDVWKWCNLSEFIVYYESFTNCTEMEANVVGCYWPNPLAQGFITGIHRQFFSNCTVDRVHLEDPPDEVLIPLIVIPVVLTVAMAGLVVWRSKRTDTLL
Assay: cell-based or functional assay
Starred links: 1 amine or outer side, 2 acyl side, 3 side chain; linkers in the order of their positions; H or OH if unused. Positions of bridges follow the written chain, without caps; N, C: chain ends. Groups on a side chain read outwards from the residue. No end group written: not given here. *: point of attachment. 19‑carboxyheptadecanoyl = not defined here; C18 diacid = O=C(O)CCCCCCCCCCCCCCCCC(=O)*; γGlu = O=C(O)[C@H](CCC(=O)[*:2])N[*:1]; AEEA = NCCOCCOCC(=O)O
Give the value in nM but do not write nM after it.

## Task Give its Amylin receptor human EC50 value. Item: {19‑carboxyheptadecanoyl-γGlu-AEEA-AEEA}-CNTATCATQRLAEFLHHSSNNFGPILPPTNVGSNTY-NH2 (disulfide 1-6; reading uncertain; also: printed as N-alpha-[2-(2-{2-[2-(2-{2-[(S)-4-Carboxy-4-(19-carboxyheptadecanoylamino)butyrylamino]ethoxy}ethoxy)acetylamino]ethoxy}ethoxy)acetyl]-[des1,Glu14,His17]-pramlintide)
## Result 0.334

## Task Also KCNTATCATQRLAEFLHHSSNNFGK([AEEA-AEEA-γGlu-19‑carboxyheptadecanoyl])ILSSTNVGSHTY-NH2 (disulfide 2-7) ?
## Result 0.301

## Task Also {C18 diacid-γGlu}-KCNTATCATQRLAEFLHHSSNNFGPILPPTNVGSNTY-NH2 (disulfide 2-7; not fully specified; printed as N-alpha-[(S)-4-Carboxy-4-(17-carboxyheptadecanoylamino)butyryl]-[Glu14,His17]-pramlintide) [N-alpha-[(S)-4-Carboxy-4-(17-carboxyheptadecanoylamino)butyryl]-[Glu14,His17]-pramlintide] ?
## Result 0.0469
